Please provide measured 3p-DR in % of DMSO counter for the entries that follow.
molecular target: γ-secretase complex (Homo sapiens); experiment: APP-C99 counter assay (GSI reporter assay); type: cell-based; conditions: 10µM; APP-C99 counter assay

Known results for compounds:
Q: Entry `Fc1cc(CN2CCC3(CC2)OCCc2c3[nH]c3ccc(Br)cc23)cc(F)c1F` : reported 3p-DR in % of DMSO counter = ?
Result: 118.1 % of DMSO

Q: Now the same for `O=C(Nc1ccc(O)c(-c2nc3ccccc3o2)c1)c1ccc(-c2ccc([N+](=O)[O-])cc2)o1`
Result: 127.0 % of DMSO

Q: Now the same for `CCCC(=O)c1ccc(S(=O)(=O)N2CCN(Cc3csc(-c4ccccc4)n3)CC2)cc1`
Result: 124.1 % of DMSO

Q: Now the same for O=C(Nc1sccc1C(=O)N1CCOCC1)C(Sc1ccccc1)c1ccccc1 (stereo not drawn)
Result: 58.6 % of DMSO

Q: Now the same for `COc1ccc2cc(C(=O)N3CCC(c4ccncc4)CC3)[nH]c2c1`
Result: 49.5 % of DMSO

Batch request: 3p-DR in % of DMSO counter per item, same order as input.
1. c1ccc2c(c1)CCN(c1nc3cc4c(cc3s1)OCCO4)C2
2. COc1cc(Nc2cc(-c3ccccc3N(C)C)ncn2)cc(OC)c1OC
3. CCC(C)(C)c1ccc(S(=O)(=O)Nc2ccc3ncsc3c2)cc1
4. O=C(O)c1c2c(nc3ccccc13)C(=Cc1ccc3c(c1)OCCO3)CC2

Result:
["45.9 % of DMSO", "148.1 % of DMSO", "45.0 % of DMSO", "16.4 % of DMSO"]

* * *

Please provide measured Hill-slope for the entries that follow.
target: γ-secretase complex (Homo sapiens, UniProt P49768); experiment: APP-C99 counter assay (GSI reporter assay); format: cell-based; conditions: 14p APP assay DR; bottom constrained to Emax of positive control LY-411575

Known results for molecules:
Q: Entry `COc1cccc(Nc2nc(-c3cccnc3)cn3ccnc23)c1` : reported Hill-slope = ?
Result: 0.0551

Q: Now the same for `CC(=O)Nc1cccc(-c2cn3ccnc3c(Nc3cccc(OC(F)(F)C(F)F)c3)n2)c1`
Result: 0.0127

Batch request: Hill-slope per item, same order as input.
1. Cc1ccc(-c2noc([C@@H]3Cc4[nH]cnc4CN3C(=O)CCC(=O)O)n2)cc1
2. Cc1cc(C)c2[nH]c(C(=O)N[C@H](c3ccccc3)c3ccnn3C)c(C)c2c1

Result:
-0.00263
-1.0

* * *

biological target: γ-secretase complex (Homo sapiens); test: APP-C99 counter assay (GSI reporter assay); type: cell-based; conditions: 24 h; 25µM; APP-C99 counter assay; read-out: 3p-DR in % of DMSO counter
Please provide measured remaining activity at 25 µM for the entries that follow.
Answers are plain numbers, in %.

Q: Entry Cc1ccccc1Nc1nc(N)nc(CN2CCCC(C(F)(F)F)C2)n1 (stereo not drawn) : reported remaining activity at 25 µM = ?
Result: 156

Q: Now the same for Cc1nn(-c2nc3ccccc3s2)c(O)c1C1OC(=O)c2ccccc21 (stereo not drawn)
Result: 81.7

Q: Now the same for `CCOc1ccccc1-c1ccccc1NC(=O)c1ccc2c(c1)ncn2C1CC1`
Result: 197

Q: Now the same for Cc1[nH]c2cccc(C(=O)N3CCCCC3CCNC(=O)c3ccccc3)c2c1C (stereo not drawn)
Result: 135

Q: Now the same for `COc1cc(Nc2nc(-c3cccc(NC(C)=O)c3)cn3ccnc23)cc(OC)c1OC`
Result: 242

Q: Now the same for `COc1ccc(C(=O)N2Cc3nc[nH]c3C[C@H]2c2nc(-c3ccc(OC)cc3)no2)cc1`
Result: 78.7

Q: Now the same for `O=C(Nc1nnc(-c2ccc3c(c2)OCCO3)o1)c1ccccc1F`
Result: 153

Q: Now the same for CC1CCc2c(sc3ncnc(NCCCN4CCCCCC4=O)c23)C1 (stereo not drawn)
Result: 144

Continuing:
Q: Entry CC(=O)N1CCc2sccc2C1c1ccccc1NCc1ccoc1 (stereo not drawn) : reported remaining activity at 25 µM = ?
Result: 184

Just for reference, paper PMC13242511 is where these values come from.
